Source: patent US7727967B2

Molecular target: carbonyl reductase (Homo sapiens, UniProt P16152)
Experiment: Inhibition of carbonyl reductase by arylcyanooximes (1/rate vs. 1/substrate, menadione and NADPH as varied substrates)
Format: biochemical
Conditions: carbonyl substrate
recordedMetric: inhibition pattern against the carbonyl substrate

Example entries and their recorded answers appear below.
# molecule, measuredOn, recordedValue
measured = [
    ("N#CC(=NO)c1c(F)cccc1Cl [C4]", "carbonyl reductase (Homo sapiens, UniProt P16152)", "uncompetitive inhibitors"),
    ("N#CC(=NO)c1c(F)cccc1F [C2, oximino(2,6-difluorophenyl)acetonitrile]", "carbonyl reductase (Homo sapiens, UniProt P16152)", "uncompetitive inhibitors"),
    ("N#CC(=NO)c1ccc(F)cc1F [C1, oximino(2,4-difluorophenyl)acetonitrile]", "carbonyl reductase (Homo sapiens, UniProt P16152)", "uncompetitive inhibitors"),
    ("N#CC(=NO)c1c(Cl)cccc1Cl [C6, oximino(2,6-dichlorophenyl)acetonitrile]", "carbonyl reductase (Homo sapiens, UniProt P16152)", "uncompetitive inhibitors"),
    ("N#CC(=NO)c1ccc(Cl)cc1Cl [C5, oximino(2,4-dichlorophenyl)acetonitrile]", "carbonyl reductase (Homo sapiens, UniProt P16152)", "uncompetitive inhibitors"),
]

Now consider a different molecule.
Prompt: What measured inhibition pattern against the carbonyl substrate goes with N#CC(=NO)c1cc(F)ccc1F [C3, oximino(2,5-difluorophenyl)acetonitrile] ?
Response: uncompetitive inhibitors

----------
Target: carbonyl reductase (Homo sapiens, UniProt P16152)
Sequence (P16152 1-277): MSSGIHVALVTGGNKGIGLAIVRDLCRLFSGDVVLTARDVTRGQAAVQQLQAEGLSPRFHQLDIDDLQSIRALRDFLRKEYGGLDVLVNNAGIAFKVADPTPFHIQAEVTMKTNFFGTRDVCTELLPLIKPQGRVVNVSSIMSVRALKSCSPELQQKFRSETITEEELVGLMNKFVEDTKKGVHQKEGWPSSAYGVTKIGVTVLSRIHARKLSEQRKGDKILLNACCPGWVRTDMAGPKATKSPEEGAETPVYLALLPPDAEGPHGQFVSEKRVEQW
Assay: Inhibition of carbonyl reductase by arylcyanooximes (1/rate vs. 1/substrate, menadione and NADPH as varied substrates)
Type: biochemical
Details: coenzyme and carbonyl substrates
recordedMetric: inhibition pattern against both coenzyme and carbonyl substrates

# compound, recordedValue
measured = [
    ("N#CC(=NO)c1cc(F)ccc1F", "uncompetitive inhibitors"),
    ("N#CC(=NO)c1c(F)cccc1Cl", "uncompetitive inhibitors"),
    ("N#CC(=NO)c1c(F)cccc1F", "uncompetitive inhibitors"),
    ("N#CC(=NO)c1c(Cl)cccc1Cl", "uncompetitive inhibitors"),
    ("N#CC(=NO)c1ccc(F)cc1F", "uncompetitive inhibitors"),
]

Please examine the following record next.
Prompt: Look up inhibition pattern against both coenzyme and carbonyl substrates: `N#CC(=NO)c1ccc(Cl)cc1Cl`
Response: uncompetitive inhibitors

----------
recordedMetric: melting point

Prompt: Which melting point is reported for this compound? N#CC(=NO)c1ccc(Cl)cc1Cl [C5, oximino(2,4-dichlorophenyl)acetonitrile]
Response: 151 °C

Prompt: I have this compound here, N#CC(=NO)c1c(F)cccc1F [C2, oximino(2,6-difluorophenyl)acetonitrile] , and I need its recorded melting point.
Response: 99 to 100 °C

Prompt: Look up melting point: N#CC(=NO)c1cc(F)ccc1F [C3, oximino(2,5-difluorophenyl)acetonitrile]
Response: 64 to 67 °C

Prompt: For the compound N#CC(=NO)c1ccc(F)cc1F [C1, oximino(2,4-difluorophenyl)acetonitrile] , what melting point is on record?
Response: 64 to 65 °C

Prompt: Give its melting point value. Item: N#CC(=NO)c1c(Cl)cccc1Cl [C6, oximino(2,6-dichlorophenyl)acetonitrile]
Response: 94 to 96 °C

----------
Biological target: carbonyl reductase (Homo sapiens)
Sequence (P16152 1-277): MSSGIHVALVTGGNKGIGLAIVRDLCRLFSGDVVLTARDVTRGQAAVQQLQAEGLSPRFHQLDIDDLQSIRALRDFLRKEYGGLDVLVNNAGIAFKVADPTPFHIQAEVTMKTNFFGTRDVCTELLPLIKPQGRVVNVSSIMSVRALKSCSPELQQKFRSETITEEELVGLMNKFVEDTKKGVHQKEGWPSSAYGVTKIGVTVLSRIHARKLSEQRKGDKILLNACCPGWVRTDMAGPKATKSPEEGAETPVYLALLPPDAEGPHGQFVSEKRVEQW
pKi: −log10 of the molar value.
recordedMetric: pKi

# compound, measuredOn, recordedMetric, recordedValue
measured = [
    ("N#CC(=NO)c1ccc(F)cc1F [C1, oximino(2,4-difluorophenyl)acetonitrile]", "carbonyl reductase (Homo sapiens)", "pKi", "4.14 to 4.97"),
]

Turning now to a further compound:
Prompt: If you can, please state the reported pKi value of N#CC(=NO)c1c(F)cccc1Cl [C4] .
Response: 4.14 to 4.97
